Source of measurements: paper PMC2957673

Test: Flavopiridol plasma pharmacokinetics
Assay type: in vivo
Details: human, intravenous, Cmax, at MTDs, patients who experienced DLT

{"query-smiles": "CN1CC[C@H](c2c(O)cc(O)c3c(=O)cc(-c4ccccc4Cl)oc23)[C@H](O)C1", "Cmax, µM": 3.48}

* * *

Assay: Flavopiridol plasma pharmacokinetics
Format: in vivo
Settings: human, intravenous, Mean Cmax, cycle 1, cohort 9: flavopiridol 80 mg/m^2, irinotecan 180 mg/m^2, n 6

{"query-smiles": "CN1CC[C@H](c2c(O)cc(O)c3c(=O)cc(-c4ccccc4Cl)oc23)[C@H](O)C1", "Cmax (nM)": 2690}
